Quick reference: growth of the listed items.
system: T-47D breast; assay: NCI-60 one-dose screen, 48 h (100 = growth as untreated, 0 = no growth, -100 = all killed); conditions: 10 µM
Compounds without any hit were thinned out: in the full panel of roughly 83,000, 20% have a hit. Activity calls are given as the source filed them. How the source made its calls: active means growth percent below 10; inactive means the rest.

# Molecule, growth
data = [
    ("CCC(CC)n1c(C)cc(=O)n1C(CC)CC", "105% (inactive)"),
    ("Cc1ccc(C(=O)C2C(=O)C3CCC2C3)cc1 (stereo unspecified)", "108% (inactive)"),
    ("COc1cc2c(Nc3ccc(S(N)(=O)=O)cc3)ncnc2c(OC)c1OC", "97% (inactive)"),
    ("CC(C)(C)c1ccc(S(=O)(=O)Oc2ccc(NC(=O)C3CCCCC3)cc2)cc1", "0.897% (active)"),
    ("COc1cc(/C=C/c2cc(/C=C/c3ccc(O)c(OC)c3)n(C(=O)Nc3ccc(C)cc3)n2)ccc1O", "5.65% (active)"),
]

# get_value(readout='growth', item= COc1cc2c3c(n([C@@H]4CCOC4)c(=O)c2cc1OC)-c1cc2c(cc1C3=O)OCO2 )
21.7% (inactive)

Consider next the molecule COc1ccc(C(c2ccc(OCCN(C)C)cc2)c2cc3ccccc3c3ccccc23)cc1 (stereo unspecified) in the same way.
21.8% (inactive)

Consider next the molecule Cc1ccc(-n2nnnc2N)c(C)c1 in the same way.
112% (inactive)

Consider next the molecule O=C(Cn1cc(CO)nn1)Nc1nc2ccccc2s1 in the same way.
110% (inactive)

Consider next the molecule O=C(CCC(C(=O)c1ccccc1)c1ccccc1)c1ccccc1 (stereo unspecified) in the same way.
66.6% (inactive)

Consider next the molecule O=C1Cc2cc(CCN3CCN(c4nsc5ccccc45)CC3)c(Cl)cc2N1 in the same way.
55.2% (inactive)

FYI, the data here is from PubChem BioAssay (NCI).
